Sourced from patent US3994910A

- METHOD NOTES: in vivo
- DETAILS: rat, po, 562 mg/kg
ASSAY ENDPOINT: mortality (%)
Output spec: scalar in %, unitless text.

Q: Give the reported mortality for this compound. NC1=NCCS1 [2-amino-thiazoline, 2-amino-2-thiazoline]
A: 70

* * *

- METHOD NOTES: in vivo
- DETAILS: rat, po, 383 mg/kg
ASSAY ENDPOINT: mortality

Q: Note down mortality recorded for NC1=NCCS1
A: 40%

* * *

- METHOD NOTES: in vivo
- DETAILS: rat, po, 316 mg/kg
ASSAY ENDPOINT: mortality
Record the result as a number with its unit.

Q: Report mortality, nothing else, for this compound: NC1=NCCS1
A: 20%

* * *

- METHOD NOTES: in vivo
- DETAILS: rat, po, 681 mg/kg
ASSAY ENDPOINT: mortality (%)
Provide only the numeric value, understood in %.

Q: Give reported mortality value for NC1=NCCS1 [2-amino-thiazoline, 2-amino-2-thiazoline]
A: 90

* * *

- METHOD NOTES: in vivo
- DETAILS: rat, po
ASSAY ENDPOINT: LD50 (mg/kg)
Kindly provide the numeric value in mg/kg only, without the unit symbol.

Q: Provide one value: measured LD50 of NC1=NCCS1
A: 430
